- Test system: HL-60(TB) leukemia
- measurement-protocol: NCI-60 one-dose screen, 48 h
- condition-notes: 10 µM unless noted
Compounds without any hit were thinned out: in the full panel of roughly 83,000, 20% have a hit. Calls of active or inactive are those of the source. The calls were made as follows: active = growth percent below 10; inactive = the rest.
Select the matching outcome among T for active, F for inactive

| compound | group-label |
| --- | --- |
| O=C1/C(=C/c2ccccc2[N+](=O)[O-])COc2ccc(O)c(O)c21 | T |

### Prompt For this compound, state the assay outcome: `N#Cc1cnc2cc(OC[C@@H](O)CO)c(NC(=O)CC3CSSC3)cc2c1Nc1ccc(OCc2cccc(F)c2)c(Cl)c1`
### Response T

Where do the numbers come from? From PubChem BioAssay (NCI).
